From: patent US5681826A

# Test system: α-glucosidase
# testDetails: Hydrolysis by α-glucosidase derived from rice
# Type: biochemical
# statedConditions: pH 4.0, 37°C., 18 hours
Criterion: Saccharide composition of hydrolysate by α-glucosidase: Glucose strictly under 50%. Met: T. Not met: F.

Problem: Item OC[C@H]1O[C@H](O[C@H]2O[C@H](CO)[C@@H](O[C@H]3O[C@H](CO)[C@@H](O[C@H]4O[C@H](CO)[C@@H](O[C@H]5O[C@H](CO)[C@@H](O)[C@H](O)[C@H]5O)[C@H](O)[C@H]4O)[C@H](O)[C@H]3O)[C@H](O)[C@H]2O)[C@H](O)[C@@H](O)[C@@H]1O [P III, α-maltotriosyltrehalose] : Saccharide composition of hydrolysate by α-glucosidase: Glucose beneath 50%, strictly?
Solution: F

Problem: Record OC[C@H]1O[C@H](O[C@H]2O[C@H](CO)[C@@H](O[C@H]3O[C@H](CO)[C@@H](O)[C@H](O)[C@H]3O)[C@H](O)[C@H]2O)[C@H](O)[C@@H](O)[C@@H]1O [P I, α-glucosyltrehalose] : is its Saccharide composition of hydrolysate by α-glucosidase: Glucose strictly below 50%?
Solution: T

Problem: Consider OC[C@H]1O[C@H](O[C@H]2O[C@H](CO)[C@@H](O[C@H]3O[C@H](CO)[C@@H](O[C@H]4O[C@H](CO)[C@@H](O[C@H]5O[C@H](CO)[C@@H](O[C@H]6O[C@H](CO)[C@@H](O[C@H]7O[C@H](CO)[C@@H](O)[C@H](O)[C@H]7O)[C@H](O)[C@H]6O)[C@H](O)[C@H]5O)[C@H](O)[C@H]4O)[C@H](O)[C@H]3O)[C@H](O)[C@H]2O)[C@H](O)[C@@H](O)[C@@H]1O [P V, α-maltopentaosyltrehalose] . Does its Saccharide composition of hydrolysate by α-glucosidase: Glucose lie strictly below 50%?
Solution: F

Problem: # strict comparison: is reported Saccharide composition of hydrolysate by α-glucosidase: Glucose < 50%? input = OC[C@H]1O[C@H](O[C@H]2O[C@H](CO)[C@@H](O[C@H]3O[C@H](CO)[C@@H](O[C@H]4O[C@H](CO)[C@@H](O)[C@H](O)[C@H]4O)[C@H](O)[C@H]3O)[C@H](O)[C@H]2O)[C@H](O)[C@@H](O)[C@@H]1O [P II, α-maltosyltrehalose]
Solution: F

Problem: Lab note: Saccharide composition of hydrolysate by α-glucosidase: Glucose threshold 50%. Does this compound come in strictly under it? OC[C@H]1O[C@H](O[C@H]2O[C@H](CO)[C@@H](O[C@H]3O[C@H](CO)[C@@H](O[C@H]4O[C@H](CO)[C@@H](O[C@H]5O[C@H](CO)[C@@H](O[C@H]6O[C@H](CO)[C@@H](O)[C@H](O)[C@H]6O)[C@H](O)[C@H]5O)[C@H](O)[C@H]4O)[C@H](O)[C@H]3O)[C@H](O)[C@H]2O)[C@H](O)[C@@H](O)[C@@H]1O [P IV, α-maltotetraosyltrehalose]
Solution: F
